For each of the molecules below, state its GI50.
Tested on: A-2780
Assay: Tata protocol cytotoxicity (SRB, 48 h), A-2780
Assay type: cell-based, human
Conditions: A-2780, ovary
Please reply with the bare figure in nM and do not write the unit itself.

Problem: Please give the documented GI50 of `COc1cc2c(cc1OCCCCCOc1ccc(-n3c(/C=C/c4ccccc4)nc4ccccc4c3=O)cc1)N=C[C@@H]1CCCN1C2=O`
Result: 150

Problem: Please give the documented GI50 of `COc1cc2c(cc1OCCCCOc1ccc(-n3c(/C=C/c4ccccc4)nc4ccccc4c3=O)cc1)N=C[C@@H]1CCCN1C2=O`
Result: 160

Problem: Please give the documented GI50 of `COc1cc2c(cc1OCCCCOc1ccc(-n3c(C)nc4ccccc4c3=O)cc1)N=C[C@@H]1CCCN1C2=O`
Result: 160

Problem: Please give the documented GI50 of `COc1cc2c(cc1OCCCOc1ccc(-n3c(/C=C/c4ccccc4)nc4ccccc4c3=O)cc1)N=C[C@@H]1CCCN1C2=O`
Result: 140
